# TEST_TARGET: recombinant PRL-2 (Homo sapiens, UniProt Q12974)
# Construct: 6xHis (N, cleaved yes); made in house; host or cells: E. coli One Shot BL21 Star
# Sequence (Q12974 1-167): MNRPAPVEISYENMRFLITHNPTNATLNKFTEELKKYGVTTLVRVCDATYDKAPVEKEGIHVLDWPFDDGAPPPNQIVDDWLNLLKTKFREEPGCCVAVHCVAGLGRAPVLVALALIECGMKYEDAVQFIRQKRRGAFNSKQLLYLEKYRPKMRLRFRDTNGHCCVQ
# TEST_DESCRIPTION: In vitro phosphatase assay (DiFMUP hydrolysis), PRL-2
# Format: biochemical
# CONDITION: FDA-approved drug screen; activity compared to DMSO
Where a name gives a salt, the structure may show the parent alone.
READOUT_KIND: % Phosphatase Activity (compared to DMSO) PRL-2 (%)
Reply numerically in %, unit not repeated.

Cc1ccc(C(=O)C(C)CN2CCCCC2)cc1.Cl (stereo not shown) [Tolperisone HCl]	108
CC(S)C(=O)NCC(=O)O (stereo not shown)	119
CC(CN(C)C)CN1c2ccccc2CCc2ccccc21 (stereo not shown) [Trimipramine Maleate]	97
Cc1[nH]c(/C=C2\C(=O)Nc3ccccc32)c(C)c1CCC(=O)O [TSU-68 (SU6668, Orantinib)]	52
Oc1cc(Cl)ccc1Oc1ccc(Cl)cc1Cl	106

Lookup: Entry CNC(=O)c1cc(Oc2ccc(NC(=O)Nc3ccc(Cl)c(C(F)(F)F)c3)cc2)ccn1 [Sorafenib Tosylate] : reported % Phosphatase Activity (compared to DMSO) PRL-2 = ?
Found: 93

Lookup: How about CCOC(=O)[C@H](CCc1ccccc1)N[C@H]1CS[C@H](c2cccs2)CN(CC(=O)O)C1=O [Temocapril HCl] ?
Found: 93

Lookup: Now the same for Cc1cnc(Nc2ccc(OCCN3CCCC3)cc2)nc1Nc1cccc(S(=O)(=O)NC(C)(C)C)c1 [TG101348 (SAR302503)]
Found: 96

###

# TEST_TARGET: recombinant PRL-1 (Homo sapiens, UniProt Q93096)
# Construct: 6xHis (N, cleaved yes); made in house; host or cells: E. coli One Shot BL21 Star
# Sequence (Q93096 1-173): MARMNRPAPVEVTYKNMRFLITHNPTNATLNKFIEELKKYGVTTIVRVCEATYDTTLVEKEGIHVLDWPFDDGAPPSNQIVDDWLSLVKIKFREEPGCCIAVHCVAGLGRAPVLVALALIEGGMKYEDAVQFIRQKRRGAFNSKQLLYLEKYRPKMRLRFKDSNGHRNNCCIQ
# TEST_DESCRIPTION: In vitro phosphatase assay (DiFMUP hydrolysis), PRL-1; note: test concentration or dose not given here
# Type: biochemical
# CONDITION: FDA-approved drug screen; compared to DMSO
READOUT_KIND: % Phosphatase Activity (compared to DMSO) PRL-1 (%)
Form entry: value (%) — number only.

The examples below pair each entry with its known result.
CCn1cc(C(=O)O)c(=O)c2ccc(C)nc21	112
Cc1ncc([N+](=O)[O-])n1CCO	89

Lookup: Query (molecule): Cc1nc(Nc2ncc(C(=O)Nc3c(C)cccc3Cl)s2)cc(N2CCN(CCO)CC2)n1 [Dasatinib] ; field requested: % Phosphatase Activity (compared to DMSO) PRL-1
Found: 89

Lookup: Subsequent entry: C/C(=C\c1csc(C)n1)[C@@H]1C[C@@H]2O[C@]2(C)CCC[C@H](C)[C@H](O)[C@@H](C)C(=O)C(C)(C)[C@@H](O)CC(=O)O1 [Epothilone B (EPO906, Patupilone)]
Found: 98

###

# TEST_TARGET: recombinant PRL-1 (Homo sapiens)
# Construct: 6xHis (N, cleaved yes); made in house; host or cells: E. coli One Shot BL21 Star
# TEST_DESCRIPTION: In vitro phosphatase assay (DiFMUP hydrolysis), PRL-1; note: test concentration or dose not given here
# Format: biochemical
# CONDITION: FDA-approved drug screen; compared to DMSO
Counter-ions that a name gives are not always drawn.
Listed compounds paired with reported % Phosphatase Activity (compared to DMSO) PRL-1
Please state the figure in %; there is no need to write the unit.

COC(=O)/C=C/C(=O)OC [Dimethyl Fumarate]	106
CCc1cc2c(cc1CC)CC(NC[C@H](O)c1ccc(O)c3[nH]c(=O)ccc13)C2 [Indacaterol Maleate]	95
NC(=O)c1ncn([C@@H]2O[C@H](CO)[C@@H](O)[C@H]2O)c1O	93

Lookup: # lookup: % Phosphatase Activity (compared to DMSO) PRL-1 of CC[C@H]1OC(=O)[C@H](C)[C@@H](O[C@H]2C[C@@](C)(OC)[C@@H](O)[C@H](C)O2)[C@H](C)[C@@H](O[C@@H]2O[C@H](C)C[C@H](N(C)C)[C@H]2O)[C@](C)(O)C[C@@H](C)CN(C)[C@H](C)[C@@H](O)[C@]1(C)O [Azithromycin Dihydrate]
Found: 98

Lookup: Next record, please: CN1CCC(=C2c3ccccc3CCc3cccnc32)CC1 [Azatadine dimaleate]
Found: 103

Lookup: Also check "Cc1ccc(Nc2nccc(N(C)c3ccc4c(C)n(C)nc4c3)n2)cc1S(N)(=O)=O"
Found: 97

Lookup: Now give it for "Cc1ccc(S(=O)(=O)Nc2nc3ccccc3nc2Nc2ccc3nsnc3c2)cc1" too.
Found: 94

###

Below is a list of entries, each paired with its recorded % Phosphatase Activity (compared to DMSO) PRL-3 value.
# TEST_TARGET: recombinant PRL-3 (Homo sapiens, UniProt O75365)
# Construct: 6xHis (N, cleaved yes); made in house; host or cells: E. coli One Shot BL21 Star
# Sequence (O75365 whole entry): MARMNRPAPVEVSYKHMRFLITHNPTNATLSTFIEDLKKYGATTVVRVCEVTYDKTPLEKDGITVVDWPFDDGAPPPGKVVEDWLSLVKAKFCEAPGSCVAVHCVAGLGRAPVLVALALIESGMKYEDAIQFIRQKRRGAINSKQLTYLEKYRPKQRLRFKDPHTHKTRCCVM
# TEST_DESCRIPTION: In vitro phosphatase assay (DiFMUP hydrolysis), PRL-3; note: test concentration or dose not given here
# Format: biochemical
# CONDITION: FDA-approved drug screen; compared to DMSO
Counter-ions that a name gives are not always drawn.
Field format: number, assumed %, no unit text.

Sample answers from the record:
CC[C@@H](CO)NCCN[C@@H](CC)CO [Ethambutol HCl]	93
CC(C)(O/N=C(\C(=O)N[C@@H]1C(=O)N2C(C(=O)[O-])=C(C[n+]3ccccc3)CS[C@H]12)c1csc(N)n1)C(=O)O [Ceftazidime Pentahydrate]	103
Nc1cccc2c1C(=O)N(C1CCC(=O)NC1=O)C2=O (stereo not shown) [Pomalidomide]	204
CC(C[N+](C)(C)C)OC(N)=O (stereo not shown) [Bethanechol chloride]	77
FC(F)(F)C(Cl)Br (stereo not shown)	79
Cc1nc(C)c(Cl)c(O)c1Cl	80

Lookup: Given COc1ccccc1OCC(O)CN1CCN(CC(=O)Nc2c(C)cccc2C)CC1 (stereo not shown) , state its recorded % Phosphatase Activity (compared to DMSO) PRL-3.
Found: 118

###

Examples of compounds with documented % Phosphatase Activity (compared to DMSO) PRL-2 follow.
# TEST_TARGET: recombinant PRL-2 (Homo sapiens, UniProt Q12974)
# Construct: 6xHis (N, cleaved yes); made in house; host or cells: E. coli One Shot BL21 Star
# TEST_DESCRIPTION: In vitro phosphatase assay (DiFMUP hydrolysis), PRL-2;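 note: PRL-2 activity read as DiFMUP hydrolysis after 20 min at room temperature with drug, enzyme first pre-reduced at 4 °C for 20 min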
# Type: biochemical
# CONDITION: FDA-approved drug screen; compared to DMSO
Where a name gives a salt, the structure may show the parent alone.
Numeric answer only, unit % assumed.

CC1CCc2cc(F)cc3c(=O)c(C(=O)O)cn1c23 (stereo not shown) [Flumequine]	112
CCOc1cc(N)c(Cl)cc1C(=O)NCC1CN(Cc2ccc(F)cc2)CCO1 (stereo not shown) [Mosapride Citrate]	101
CN1CCCC(n2nc(Cc3ccc(Cl)cc3)c3ccccc3c2=O)CC1 (stereo not shown) [Azelastine HCl]	113
CCC[C@@H]1C[C@@H](C(=O)N[C@@H]([C@H]2O[C@H](SC)[C@H](O)[C@@H](O)[C@H]2O)[C@@H](C)O)N(C)C1 [Lincomycin HCl]	111
CC(=O)C1C(=O)C=C(C)OC1=O (stereo not shown) [Dehydroacetic acid]	98

Lookup: Kindly state the measured % Phosphatase Activity (compared to DMSO) PRL-2 obtained for CC(=O)O[C@]1(C(C)=O)CC[C@H]2[C@@H]3C[C@H](C)C4=CC(=O)CC[C@]4(C)[C@H]3CC[C@@]21C [Medroxyprogesterone acetate] with recombinant PRL-2 (Homo sapiens, UniProt Q12974).
Found: 89

Lookup: Repeat with Clc1ccc(C(Cn2ccnc2)OCc2c(Cl)cccc2Cl)c(Cl)c1 (stereo not shown) [Isoconazole nitrate]
Found: 110

Lookup: Now this one: CN[C@@H]1[C@H](O[C@H]2[C@H](O[C@H]3[C@H](O)[C@@H](O)[C@H](NC(=N)N)[C@@H](O)[C@@H]3NC(=N)N)O[C@@H](C)[C@]2(O)CO)O[C@@H](CO)[C@H](O)[C@H]1O [Dihydrostreptomycin sulfate]
Found: 90

Lookup: And what about the compound CCOC(=O)C1=C(COCCN)NC(C)=C(C(=O)OC)C1c1ccccc1Cl (stereo not shown) [Amlodipine] ?
Found: 157

Lookup: Continue with O=C1c2c(O)ccc(O)c2C(=O)c2c(NCCNCCO)ccc(NCCNCCO)c21 [Mitoxantrone HCl]
Found: 76
